Molecular target: P. aeruginosa TyrRS-S (Pseudomonas aeruginosa)
Assay: Binding mode assay
Assay type: biochemical
Conditions: Tyr 25-300 μM, ATP held at 2.5 mM; TyrRS-S 0.05 μM
VALUE_TYPE: shift in the IC50 with increasing Tyr concentration (competition with Tyr)

{"LINE_NOTATION": "O=C(c1ccccc1)N1CCCn2cc(-c3ccc4c(c3)OCO4)nc21", "VAL": "no shift in the IC50"}
{"LINE_NOTATION": "O=C1Nc2ccccc2Oc2cc(N3CCc4ccccc4C3)c(S(=O)(=O)N3CCCCC3)cc21", "VAL": "no shift in the IC50"}

====

Target: P. aeruginosa TyrRS-S (Pseudomonas aeruginosa, UniProt Q9HWP3)
Sequence (Q9HWP3 whole entry): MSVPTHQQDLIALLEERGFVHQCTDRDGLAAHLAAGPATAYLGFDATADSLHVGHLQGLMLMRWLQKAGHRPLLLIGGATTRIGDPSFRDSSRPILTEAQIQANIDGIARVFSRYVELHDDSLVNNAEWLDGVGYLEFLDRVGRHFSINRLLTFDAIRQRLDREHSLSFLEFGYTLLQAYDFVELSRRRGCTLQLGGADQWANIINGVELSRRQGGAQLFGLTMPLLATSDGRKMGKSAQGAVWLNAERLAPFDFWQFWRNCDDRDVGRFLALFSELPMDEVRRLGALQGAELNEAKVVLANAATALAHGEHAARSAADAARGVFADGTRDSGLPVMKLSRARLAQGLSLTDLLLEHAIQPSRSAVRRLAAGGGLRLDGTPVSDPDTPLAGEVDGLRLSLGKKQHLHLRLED
Assay: Binding mode assay
Format: biochemical
Conditions: ATP 25-1000 μM, Tyr held constant; TyrRS-S 0.05 μM
VALUE_TYPE: shift in the IC50 with increasing ATP concentration (competition with ATP)

{"LINE_NOTATION": "O=C1Nc2ccccc2Oc2cc(N3CCc4ccccc4C3)c(S(=O)(=O)N3CCCCC3)cc21", "VAL": "no shift in the IC50"}
{"LINE_NOTATION": "O=C(c1ccccc1)N1CCCn2cc(-c3ccc4c(c3)OCO4)nc21", "VAL": "no shift in the IC50"}
